Recorded values, source ChEMBL document CHEMBL2016534.

- TESTED TARGET: UniProt P11712
- Sequence (P11712 whole entry): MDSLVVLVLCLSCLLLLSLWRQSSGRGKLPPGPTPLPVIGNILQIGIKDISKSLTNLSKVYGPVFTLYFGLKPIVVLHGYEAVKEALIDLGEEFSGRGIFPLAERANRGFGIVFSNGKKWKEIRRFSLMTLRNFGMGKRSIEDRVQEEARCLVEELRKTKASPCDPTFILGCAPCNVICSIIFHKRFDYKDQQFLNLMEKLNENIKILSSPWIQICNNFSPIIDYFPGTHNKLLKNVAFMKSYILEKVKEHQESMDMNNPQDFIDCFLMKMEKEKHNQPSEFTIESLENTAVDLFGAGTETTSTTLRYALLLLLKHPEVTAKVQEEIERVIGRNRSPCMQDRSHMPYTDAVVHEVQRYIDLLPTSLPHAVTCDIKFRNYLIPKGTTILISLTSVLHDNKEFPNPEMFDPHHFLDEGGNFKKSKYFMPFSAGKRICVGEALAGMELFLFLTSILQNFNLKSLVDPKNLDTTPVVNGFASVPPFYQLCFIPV
- METHOD DESCRIPTION: Inhibition of CYP2C9 at 3 uM
- Type: ADME
EXPERIMENTAL READOUT: inhibition at 3 µM

[[record]]
chem_smiles = "N#Cc1c(N2CCOCC2)sc(-c2nnc[nH]2)c1-c1ccc(Cl)cc1Cl"
observed = "< 30%"


----------
- TESTED TARGET: Phosphatidylinositol 4,5-bisphosphate 3-kinase catalytic subunit alpha isoform (Homo sapiens, UniProt P42336)
- Sequence (P42336 whole entry, canonical isoform): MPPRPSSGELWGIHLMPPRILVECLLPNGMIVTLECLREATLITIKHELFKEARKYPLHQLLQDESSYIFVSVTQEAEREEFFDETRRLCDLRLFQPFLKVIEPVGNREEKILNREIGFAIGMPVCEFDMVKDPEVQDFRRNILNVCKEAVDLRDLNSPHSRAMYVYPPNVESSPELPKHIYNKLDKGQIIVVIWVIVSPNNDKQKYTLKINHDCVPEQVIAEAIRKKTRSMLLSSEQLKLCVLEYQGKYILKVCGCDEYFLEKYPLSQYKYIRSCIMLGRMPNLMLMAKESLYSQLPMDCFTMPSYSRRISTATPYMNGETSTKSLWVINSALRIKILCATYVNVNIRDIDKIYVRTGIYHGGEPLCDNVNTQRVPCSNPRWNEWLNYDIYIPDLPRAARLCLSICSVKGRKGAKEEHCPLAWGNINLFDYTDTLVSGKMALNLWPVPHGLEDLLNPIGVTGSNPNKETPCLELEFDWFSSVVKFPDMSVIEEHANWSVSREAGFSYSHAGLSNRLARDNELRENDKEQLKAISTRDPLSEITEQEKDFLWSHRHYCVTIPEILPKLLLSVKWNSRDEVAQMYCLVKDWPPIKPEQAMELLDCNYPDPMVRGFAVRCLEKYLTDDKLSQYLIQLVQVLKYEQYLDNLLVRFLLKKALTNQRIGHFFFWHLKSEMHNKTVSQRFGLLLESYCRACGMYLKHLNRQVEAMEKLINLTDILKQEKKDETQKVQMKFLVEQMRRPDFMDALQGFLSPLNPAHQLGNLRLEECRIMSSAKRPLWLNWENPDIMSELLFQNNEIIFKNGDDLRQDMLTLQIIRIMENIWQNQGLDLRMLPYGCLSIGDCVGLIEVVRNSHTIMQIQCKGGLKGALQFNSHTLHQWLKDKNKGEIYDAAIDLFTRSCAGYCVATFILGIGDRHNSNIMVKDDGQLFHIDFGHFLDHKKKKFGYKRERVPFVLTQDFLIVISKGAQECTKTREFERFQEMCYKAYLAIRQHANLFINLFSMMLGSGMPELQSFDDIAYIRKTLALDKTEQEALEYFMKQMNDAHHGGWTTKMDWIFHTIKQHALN
- METHOD DESCRIPTION: Inhibition of PI3Kalpha
Please use Y for Ki under 10 nM and N for everything else, ties included.

[[record]]
chem_smiles = "N#Cc1c(N2CCOCC2)sc(-c2nc[nH]n2)c1-c1ccc(Cl)cc1"
label_class = "Y"

[[record]]
chem_smiles = "N#Cc1ccc(-c2c(-c3nnc[nH]3)sc(N3CCOCC3)c2C#N)c(F)c1"
label_class = "Y"

[[record]]
chem_smiles = "N#Cc1c(N2CCOCC2)sc(-c2cn[nH]n2)c1-c1ccc(Cl)cc1"
label_class = "Y"

[[record]]
chem_smiles = "N#Cc1c(N2CCOCC2)sc(-c2cc[nH]n2)c1-c1ccc(Cl)cc1"
label_class = "Y"

[[record]]
chem_smiles = "N#Cc1c(N2CCOCC2)sc(C(N)=O)c1-c1ccc(Cl)cc1"
label_class = "N"

[[record]]
chem_smiles = "N#Cc1c(N2CCOCC2)sc(C(=O)O)c1-c1ccc(Cl)cc1"
label_class = "N"

[[record]]
chem_smiles = "N#Cc1c(N2CCOCC2)sc(-c2nnc[nH]2)c1-c1ccc(Cl)cc1Cl"
label_class = "Y"

[[record]]
chem_smiles = "Cc1nnc(-c2sc(N3CCOCC3)c(C#N)c2-c2ccc(Cl)cc2)o1"
label_class = "N"

[[record]]
chem_smiles = "N#Cc1c(N2CCOCC2)sc(-c2cn[nH]c2)c1-c1ccc(Cl)cc1"
label_class = "N"


----------
- METHOD DESCRIPTION: Metabolic stability in human liver microsomes assessed as extraction ratio
- Assay type: ADME, Microsome
- TEST CONTEXT: read-out: ERH
Entries and their hepatic extraction ratio values follow.
EXPERIMENTAL READOUT: hepatic extraction ratio

[[record]]
chem_smiles = "N#Cc1c(N2CCOCC2)sc(-c2cn[nH]n2)c1-c1ccc(Cl)cc1"
experimental_readout = "hepatic extraction ratio"
observed = 0.7

[[record]]
chem_smiles = "N#Cc1c(N2CCOCC2)sc(-c2nnc[nH]2)c1-c1ccc(Cl)cc1Cl"
experimental_readout = "hepatic extraction ratio"
observed = 0.3

[[record]]
chem_smiles = "N#Cc1c(N2CCOCC2)sc(-c2nc[nH]n2)c1-c1ccc(Cl)cc1"
experimental_readout = "hepatic extraction ratio"
observed = 0.3

[[record]]
chem_smiles = "N#Cc1ccc(-c2c(-c3nnc[nH]3)sc(N3CCOCC3)c2C#N)c(F)c1"
experimental_readout = "hepatic extraction ratio"
observed = 0.35

[[record]]
chem_smiles = "N#Cc1c(N2CCOCC2)sc(-c2cc[nH]n2)c1-c1ccc(Cl)cc1"
experimental_readout = "hepatic extraction ratio"
observed = 0.7


----------
Entries and their hepatic extraction ratio values follow.
- METHOD DESCRIPTION: Metabolic stability in mouse liver microsomes assessed as extraction ratio
- Assay type: ADME, Microsome
- TEST CONTEXT: read-out: ERH
EXPERIMENTAL READOUT: hepatic extraction ratio

[[record]]
chem_smiles = "N#Cc1ccc(-c2c(-c3nnc[nH]3)sc(N3CCOCC3)c2C#N)c(F)c1"
observed = 0.639

[[record]]
chem_smiles = "N#Cc1c(N2CCOCC2)sc(-c2nnc[nH]2)c1-c1ccc(Cl)cc1Cl"
observed = 0.88

